ASSAY_OVERVIEW: Serum concentration after 28 days of oral dosing in male OCI-LY3 tumor-bearing NSG mice
Assay type: in vivo
PROTOCOL_CONDITIONS: mouse, 1 mg/kg BID PO 28 days, 1 h post last dose, mean
MEASUREMENT_TYPE: concentration at 1 h (ng/mL)
Form entry: value (ng/mL) — number only.

Query concentration at 1 h for O=C(Nc1ccnc(C(F)(F)F)c1)c1cnn(-c2cccc3c(=O)[nH]ccc23)c1C(F)(F)F
550

====

ASSAY_OVERVIEW: Serum concentration after 28 days of oral dosing in male OCI-LY3 tumor-bearing NSG mice
Type: in vivo
PROTOCOL_CONDITIONS: mouse, 30 mg/kg BID PO 28 days, 12 h post last dose, mean
MEASUREMENT_TYPE: concentration at 12 h (ng/mL)
Form entry: value (ng/mL) — number only.

Query concentration at 12 h for O=C(Nc1ccnc(C(F)(F)F)c1)c1cnn(-c2cccc3c(=O)[nH]ccc23)c1C(F)(F)F
9000

====

ASSAY_OVERVIEW: Preliminary food effect assessment at steady state
Format: in vivo, human
PROTOCOL_CONDITIONS: human, plasma, oral, 400 mg, 2 × 200 mg, fed condition, steady state; N = 1
MEASUREMENT_TYPE: AUC (µg·h/mL)
Form entry: value (µg·h/mL) — number only.

Query AUC for O=C(Nc1ccnc(C(F)(F)F)c1)c1cnn(-c2cccc3c(=O)[nH]ccc23)c1C(F)(F)F
1320

====

ASSAY_OVERVIEW: Serum concentration after 28 days of oral dosing in male OCI-LY3 tumor-bearing NSG mice
Format: in vivo
PROTOCOL_CONDITIONS: mouse, 30 mg/kg BID PO 28 days, 0.25 h post last dose, mean
MEASUREMENT_TYPE: concentration at 0.25 h

Query concentration at 0.25 h for O=C(Nc1ccnc(C(F)(F)F)c1)c1cnn(-c2cccc3c(=O)[nH]ccc23)c1C(F)(F)F
5970 ng/mL

====

ASSAY_OVERVIEW: Single IV dose plasma PK
Format: in vivo, mouse
PROTOCOL_CONDITIONS: male, plasma; Mouse, NSG, 3M, 1 mg/kg IV in 70% PEG400; mean
MEASUREMENT_TYPE: half-life (h)
Form entry: value (h) — number only.

Query half-life for O=C(Nc1ccnc(C(F)(F)F)c1)c1cnn(-c2cccc3c(=O)[nH]ccc23)c1C(F)(F)F
5.28

====

ASSAY_OVERVIEW: Preliminary food effect assessment at steady state
Assay type: in vivo, human
PROTOCOL_CONDITIONS: human, plasma, oral, fasting conditions, 8 subjects at steady state; read-out: Tmax range
Protocol: Preliminary food effect was assessed in 8 subjects at steady state: 2 subjects at 100 mg (2×50 mg), 1 subject at 400 mg (2×200 mg), 1 subject at 200 mg (4×50 mg) and 4 subjects at 300 mg (3×100 mg). In the fasting condition, JNJ-67856633 was administered after overnight fasting for at least 8 hours. In the fed condition, following an overnight fast of at least 8 hours, the subjects were given a high-fat meal 30 minutes before drug intake. […]
MEASUREMENT_TYPE: Tmax

Query Tmax for O=C(Nc1ccnc(C(F)(F)F)c1)c1cnn(-c2cccc3c(=O)[nH]ccc23)c1C(F)(F)F [Compound A]
0 to 4 h

====

ASSAY_OVERVIEW: 14-day oral toxicity study toxicokinetics in Sprague-Dawley rats
Format: in vivo
PROTOCOL_CONDITIONS: female, rat, plasma, 200 mg/kg/day, female, Day 0, 200 mg/kg/day, mean
MEASUREMENT_TYPE: Cmax (µg/mL)
Form entry: value (µg/mL) — number only.

Query Cmax for O=C(Nc1ccnc(C(F)(F)F)c1)c1cnn(-c2cccc3c(=O)[nH]ccc23)c1C(F)(F)F
93.1

====

ASSAY_OVERVIEW: Single oral dose plasma PK in fasted dogs
Assay type: in vivo, dog
PROTOCOL_CONDITIONS: male, beagle, dog, plasma, po, 5 mg/kg, 3M, 5 mg/kg PO, 0.5% HPMC suspension, Study 4
MEASUREMENT_TYPE: half-life (h)
Form entry: value (h) — number only.

Query half-life for O=C(Nc1ccnc(C(F)(F)F)c1)c1cnn(-c2cccc3c(=O)[nH]ccc23)c1C(F)(F)F [Compound A]
21.8

====

ASSAY_OVERVIEW: 14-day oral toxicity study toxicokinetics in Sprague-Dawley rats
Assay type: in vivo
PROTOCOL_CONDITIONS: male, rat, plasma, 1000 mg/kg/day, male (4M), Day 13, 1,000 mg/kg/day, mean
MEASUREMENT_TYPE: Cmax
The reply should read as a number followed by its unit.

Query Cmax for O=C(Nc1ccnc(C(F)(F)F)c1)c1cnn(-c2cccc3c(=O)[nH]ccc23)c1C(F)(F)F
83.2 µg/mL

====

ASSAY_OVERVIEW: Single oral dose plasma PK in fasted dogs
Format: in vivo, dog
PROTOCOL_CONDITIONS: female, beagle, dog, plasma, po, 100 mg/kg, 2F, 100 mg/kg PO, 100% PEG400 solution, Study 7, Tlast = 96 hours
MEASUREMENT_TYPE: AUC(0-t)
The reply should read as a number followed by its unit.

Query AUC(0-t) for O=C(Nc1ccnc(C(F)(F)F)c1)c1cnn(-c2cccc3c(=O)[nH]ccc23)c1C(F)(F)F [Compound A]
1250 µg·h/mL

====

ASSAY_OVERVIEW: FIH study 67856633LYM1001 plasma pharmacokinetics
Type: in vivo, human
PROTOCOL_CONDITIONS: human, plasma, oral, 400 mg, Cycle 1 Day 1, 200 mg capsule, cohort 2 × 200 mg; median; read-out: Tmax
MEASUREMENT_TYPE: Tmax (h)
Form entry: value (h) — number only.

Query Tmax for O=C(Nc1ccnc(C(F)(F)F)c1)c1cnn(-c2cccc3c(=O)[nH]ccc23)c1C(F)(F)F [Compound A]
5

====

ASSAY_OVERVIEW: 14-day oral toxicity study toxicokinetics in Sprague-Dawley rats
Type: in vivo
PROTOCOL_CONDITIONS: male, rat, plasma, 30 mg/kg/day, male, Day 13, 30 mg/kg/day, mean, read-out: AUC0-24 h
MEASUREMENT_TYPE: AUC(0-t)
The reply should read as a number followed by its unit.

Query AUC(0-t) for O=C(Nc1ccnc(C(F)(F)F)c1)c1cnn(-c2cccc3c(=O)[nH]ccc23)c1C(F)(F)F
305 µg·h/mL

====

ASSAY_OVERVIEW: Single IV dose plasma PK
Assay type: in vivo, mouse
PROTOCOL_CONDITIONS: male, plasma; Mouse, CD-1, 3M, 1 mg/kg IV in 70% PEG400; mean
MEASUREMENT_TYPE: AUC(0-inf) (ng·h/mL)
Form entry: value (ng·h/mL) — number only.

Query AUC(0-inf) for O=C(Nc1ccnc(C(F)(F)F)c1)c1cnn(-c2cccc3c(=O)[nH]ccc23)c1C(F)(F)F
12200

====

ASSAY_OVERVIEW: FIH study 67856633LYM1001 plasma pharmacokinetics
Assay type: in vivo, human
PROTOCOL_CONDITIONS: human, plasma, oral, 100 mg, Cycle 2 Day 1, 50 mg capsule, cohort 2 × 50 mg; mean; read-out: AUCτ
MEASUREMENT_TYPE: AUC (µg·h/mL)
Form entry: value (µg·h/mL) — number only.

Query AUC for O=C(Nc1ccnc(C(F)(F)F)c1)c1cnn(-c2cccc3c(=O)[nH]ccc23)c1C(F)(F)F [Compound A]
366

====

ASSAY_OVERVIEW: Serum concentration after 28 days of oral dosing in male OCI-LY3 tumor-bearing NSG mice
Format: in vivo
PROTOCOL_CONDITIONS: mouse, 30 mg/kg BID PO 28 days, 1 h post last dose, mean
MEASUREMENT_TYPE: concentration at 1 h (ng/mL)
Form entry: value (ng/mL) — number only.

Query concentration at 1 h for O=C(Nc1ccnc(C(F)(F)F)c1)c1cnn(-c2cccc3c(=O)[nH]ccc23)c1C(F)(F)F [Compound A]
11400

====

ASSAY_OVERVIEW: 14-day oral toxicity study toxicokinetics in Sprague-Dawley rats
Type: in vivo
PROTOCOL_CONDITIONS: female, rat, plasma, 30 mg/kg/day, female, Day 0, 30 mg/kg/day, mean, read-out: AUC0-24 h
MEASUREMENT_TYPE: AUC(0-t) (µg·h/mL)
Form entry: value (µg·h/mL) — number only.

Query AUC(0-t) for O=C(Nc1ccnc(C(F)(F)F)c1)c1cnn(-c2cccc3c(=O)[nH]ccc23)c1C(F)(F)F [Compound A]
366

====

ASSAY_OVERVIEW: Single oral dose plasma PK in fasted dogs
Assay type: in vivo, dog
PROTOCOL_CONDITIONS: male, beagle, dog, plasma, po, 20 mg/kg, 3M, 20 mg/kg PO, -ZAF salt nanosuspension (HPMC:DOSS suspension), Study 5
MEASUREMENT_TYPE: half-life (h)
Form entry: value (h) — number only.

Query half-life for O=C(Nc1ccnc(C(F)(F)F)c1)c1cnn(-c2cccc3c(=O)[nH]ccc23)c1C(F)(F)F
16.6
